Value source: PubChem BioAssay (NCI)

# System: SK-OV-3 ovarian
# Protocol: NCI-60 one-dose screen, 48 h
# Experimental Conditions: 10 µM unless noted
Compounds without any hit were thinned out: in the full panel of roughly 83,000, 20% have a hit. Active and inactive are the calls of the source. How the source made its calls: active means growth percent below 10; inactive means the rest.
Your answer must be one of the following: yes (active), no (inactive)

Past entries and their recorded results:
[[record]]
compound = "O=c1[nH]c2cc(O)ccc2n2cc3c(F)cccc3c12"
category_label = "yes"

[[record]]
compound = "CC(Br)c1nc2ccccc2cc1C(N)=O (stereo unspecified)"
category_label = "no"

[[record]]
compound = "COc1ccc2oc(=O)cc(CN3C(=O)S/C(=C\\c4ccc(Cl)cc4)C3=O)c2c1"
category_label = "no"

[[record]]
compound = "CC(=O)Nc1nc(C)c(C(=O)N/N=C/c2cccs2)s1"
category_label = "no"

[[record]]
compound = "CCCCCCCCCCN1CC2CCCCC2C1 (stereo unspecified)"
category_label = "no"

[[record]]
compound = "CC(=O)N1CCN(CCNC(=O)n2cc(-c3ccncc3)c(-c3cc(O)cc(Cl)c3)n2)CC1"
category_label = "no"

[[record]]
compound = "O=P(OCCCl)(OCCCl)C(O)c1ccccc1Cl (stereo unspecified)"
category_label = "no"

[[record]]
compound = "O=C(/C=C1\\C(=O)N(Cc2ccccc2)c2ccccc21)c1ccc(OCCN2CCCCC2)cc1"
category_label = "no"

[[record]]
compound = "CCCCCCCCCCCCOC(=N)N(C)C"
category_label = "no"

[[record]]
compound = "Cc1c(O)c(N=Nc2ccc(C(=O)O)c(O)c2)c2ccccc2c1O"
category_label = "no"


Consider now this further compound.
Please state the recorded outcome for this compound: COc1cc(OC)c(NC(=O)n2ncc3cc(Nc4ncnc5ccccc45)ccc32)cc1Cl
no
